# target_or_test_system: cardiac myosin SII (Bos taurus, UniProt Q9BE39)
# Construct: purchased Cytoskeleton #MYO3-A
# Sequence (Q9BE39 whole entry): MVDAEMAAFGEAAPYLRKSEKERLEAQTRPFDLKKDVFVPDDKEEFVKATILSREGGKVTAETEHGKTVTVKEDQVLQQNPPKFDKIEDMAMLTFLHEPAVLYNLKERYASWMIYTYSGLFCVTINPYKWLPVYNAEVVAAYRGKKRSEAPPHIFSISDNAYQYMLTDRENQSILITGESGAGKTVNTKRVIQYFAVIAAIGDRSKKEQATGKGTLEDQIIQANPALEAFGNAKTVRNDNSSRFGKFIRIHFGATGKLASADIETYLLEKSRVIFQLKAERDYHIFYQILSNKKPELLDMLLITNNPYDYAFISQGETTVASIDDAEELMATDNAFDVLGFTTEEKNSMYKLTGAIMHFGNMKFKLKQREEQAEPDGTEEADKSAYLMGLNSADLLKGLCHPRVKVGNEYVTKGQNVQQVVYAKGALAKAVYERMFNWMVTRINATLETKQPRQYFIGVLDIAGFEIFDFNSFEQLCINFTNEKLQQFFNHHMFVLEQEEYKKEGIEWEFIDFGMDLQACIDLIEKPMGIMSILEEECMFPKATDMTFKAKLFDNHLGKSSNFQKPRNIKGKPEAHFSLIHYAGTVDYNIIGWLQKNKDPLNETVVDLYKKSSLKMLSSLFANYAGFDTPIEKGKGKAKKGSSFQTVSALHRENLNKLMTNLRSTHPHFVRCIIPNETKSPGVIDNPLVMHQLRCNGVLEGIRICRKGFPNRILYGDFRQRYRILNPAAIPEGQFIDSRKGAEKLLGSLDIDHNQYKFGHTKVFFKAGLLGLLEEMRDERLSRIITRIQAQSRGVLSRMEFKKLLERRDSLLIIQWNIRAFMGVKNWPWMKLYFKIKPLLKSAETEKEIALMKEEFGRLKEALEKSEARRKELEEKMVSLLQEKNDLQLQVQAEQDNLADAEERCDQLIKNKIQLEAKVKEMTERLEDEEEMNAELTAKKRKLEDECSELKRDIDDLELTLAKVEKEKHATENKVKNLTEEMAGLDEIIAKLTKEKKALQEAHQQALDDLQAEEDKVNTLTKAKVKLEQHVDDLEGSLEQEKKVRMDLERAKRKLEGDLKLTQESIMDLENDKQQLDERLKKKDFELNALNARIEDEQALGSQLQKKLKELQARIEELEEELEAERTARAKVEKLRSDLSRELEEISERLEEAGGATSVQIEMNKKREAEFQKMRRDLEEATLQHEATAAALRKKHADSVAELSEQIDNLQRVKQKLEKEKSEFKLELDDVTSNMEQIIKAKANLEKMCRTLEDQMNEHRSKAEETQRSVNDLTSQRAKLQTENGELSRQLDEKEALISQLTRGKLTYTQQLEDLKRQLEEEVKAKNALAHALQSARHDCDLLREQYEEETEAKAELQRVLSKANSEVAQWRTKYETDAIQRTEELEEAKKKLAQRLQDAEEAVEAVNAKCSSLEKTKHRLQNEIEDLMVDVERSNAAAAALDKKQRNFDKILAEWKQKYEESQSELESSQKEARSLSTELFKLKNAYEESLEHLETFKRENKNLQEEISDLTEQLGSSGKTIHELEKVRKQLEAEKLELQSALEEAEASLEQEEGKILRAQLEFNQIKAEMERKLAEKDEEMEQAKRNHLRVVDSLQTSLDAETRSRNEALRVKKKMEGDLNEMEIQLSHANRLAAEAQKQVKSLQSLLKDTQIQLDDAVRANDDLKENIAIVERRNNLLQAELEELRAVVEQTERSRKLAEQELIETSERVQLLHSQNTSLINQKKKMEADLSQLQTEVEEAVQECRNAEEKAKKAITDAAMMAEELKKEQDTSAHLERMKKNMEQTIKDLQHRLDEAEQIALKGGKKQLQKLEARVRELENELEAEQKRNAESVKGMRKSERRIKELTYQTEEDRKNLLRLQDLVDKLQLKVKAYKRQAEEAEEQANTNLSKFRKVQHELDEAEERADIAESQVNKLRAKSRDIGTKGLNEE
# Sequence (P85100 whole entry partner): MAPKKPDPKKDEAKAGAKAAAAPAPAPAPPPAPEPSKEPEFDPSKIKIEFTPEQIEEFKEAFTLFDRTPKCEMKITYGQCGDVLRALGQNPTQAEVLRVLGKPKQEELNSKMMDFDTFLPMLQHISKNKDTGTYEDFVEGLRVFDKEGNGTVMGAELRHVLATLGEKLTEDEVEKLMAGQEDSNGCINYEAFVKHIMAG
# Sequence (Q3SZE5 whole entry partner): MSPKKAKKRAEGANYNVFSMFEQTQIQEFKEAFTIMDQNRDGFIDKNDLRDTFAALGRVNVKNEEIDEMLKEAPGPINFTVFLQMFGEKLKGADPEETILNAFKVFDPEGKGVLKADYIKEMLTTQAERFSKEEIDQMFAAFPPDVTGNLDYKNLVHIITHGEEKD
# assay_notes: Inhibition of hydrolysis of ATP by cardiac myosin SII
# Assay type: biochemical
# test_settings: 100 μM compound
Examples of molecules with documented inhibition at 100 µM follow.

- molecule: "O=c1cc2c(nn1Cc1ccc3c(c1)CC3)-c1cnc(Oc3cncc(F)c3)nc1CC2"
  target_or_test_system: "cardiac myosin SII (Bos taurus, UniProt Q9BE39)"
  inhibition at 100 µM, %: 2
- molecule: "O=c1ccc(-c2cnc(O[C@H]3CCOC3)nc2)nn1Cc1ccc2c(c1)CCC2"
  target_or_test_system: "cardiac myosin SII (Bos taurus, UniProt Q9BE39)"
  inhibition at 100 µM, %: 14
- molecule: "N#CC1(COc2ncc(-c3ccc(=O)n(Cc4ccc5c(c4)CCC5)n3)cn2)CC1"
  target_or_test_system: "cardiac myosin SII (Bos taurus, UniProt Q9BE39)"
  inhibition at 100 µM, %: 16
- molecule: "O=c1ccc(-c2cnc(OC3CC3)nc2)nn1Cc1ccc2c(c1)CCC2"
  target_or_test_system: "cardiac myosin SII (Bos taurus, UniProt Q9BE39)"
  inhibition at 100 µM, %: -3.8
- molecule: "O=c1ccc(-c2cnc(C3CC(F)(F)C3)nc2)nn1Cc1ccc2c(c1)CCC2"
  target_or_test_system: "cardiac myosin SII (Bos taurus, UniProt Q9BE39)"
  inhibition at 100 µM, %: 8
- molecule: "O=C1CCc2ccc(Cn3nc(-c4cnc(OC5COCC5(F)F)nc4)ccc3=O)cc21 (centres unmarked)"
  target_or_test_system: "cardiac myosin SII (Bos taurus, UniProt Q9BE39)"
  inhibition at 100 µM, %: 4
- molecule: "N#CC1(COc2ncc(-c3ccc(=O)n(Cc4ccc5c(c4)C(=O)CC5)n3)cn2)CC1"
  target_or_test_system: "cardiac myosin SII (Bos taurus, UniProt Q9BE39)"
  inhibition at 100 µM, %: 10
- molecule: "O=c1ccc(-c2cnc(Oc3cncc(Cl)c3)nc2)nn1Cc1ccc2c(c1)CCC2"
  target_or_test_system: "cardiac myosin SII (Bos taurus, UniProt Q9BE39)"
  inhibition at 100 µM, %: 1
- molecule: "O=c1ccc(-c2cnc(OCCCF)nc2)nn1Cc1ccc2c(c1)CC2"
  target_or_test_system: "cardiac myosin SII (Bos taurus, UniProt Q9BE39)"
  inhibition at 100 µM, %: 19
- molecule: "O=C1CCc2ccc(Cn3nc(-c4cnc(Oc5cncc(F)c5)nc4)ccc3=O)cc21"
  target_or_test_system: "cardiac myosin SII (Bos taurus, UniProt Q9BE39)"
  inhibition at 100 µM, %: 4
- molecule: "O=c1ccc(-c2cnc(OCC3(F)CC3)nc2)nn1Cc1ccc2c(c1)CCC2"
  target_or_test_system: "cardiac myosin SII (Bos taurus, UniProt Q9BE39)"
  inhibition at 100 µM, %: 4.5
- molecule: "O=c1ccc(-c2cnc(OCC(F)(F)F)nc2)nn1Cc1ccc2c(c1)CCC2"
  target_or_test_system: "cardiac myosin SII (Bos taurus, UniProt Q9BE39)"
  inhibition at 100 µM, %: 1.5
- molecule: "O=C1CCc2ccc(Cn3nc(-c4cnc(O[C@H]5CCOC5)nc4)ccc3=O)cc21"
  target_or_test_system: "cardiac myosin SII (Bos taurus, UniProt Q9BE39)"
  inhibition at 100 µM, %: 15
- molecule: "O=c1ccc(-c2cnc(Oc3nccs3)nc2)nn1Cc1ccc2c(c1)CCC2"
  target_or_test_system: "cardiac myosin SII (Bos taurus, UniProt Q9BE39)"
  inhibition at 100 µM, %: 3
- molecule: "O=C1CCc2c(F)cc(Cn3nc(-c4cnc(OCC(F)F)nc4)ccc3=O)cc21"
  target_or_test_system: "cardiac myosin SII (Bos taurus, UniProt Q9BE39)"
  inhibition at 100 µM, %: 4
- molecule: "CC(F)(F)COc1ncc(-c2ccc(=O)n(Cc3ccc4c(c3)CCC4)n2)cn1"
  target_or_test_system: "cardiac myosin SII (Bos taurus, UniProt Q9BE39)"
  inhibition at 100 µM, %: 1
- molecule: "O=C1CCc2ccc(Cn3nc(-c4cnc(O[C@@H]5CCOC5)nc4)ccc3=O)cc21"
  target_or_test_system: "cardiac myosin SII (Bos taurus, UniProt Q9BE39)"
  inhibition at 100 µM, %: 10
- molecule: "O=c1cc2c(nn1Cc1ccc3c(c1)CC3)-c1cnc(OCC(F)(F)F)nc1CC2"
  target_or_test_system: "cardiac myosin SII (Bos taurus, UniProt Q9BE39)"
  inhibition at 100 µM, %: -5
- molecule: "O=c1ccc(-c2cnc(OCC3(F)CCC3)nc2)nn1Cc1ccc2c(c1)CCC2"
  target_or_test_system: "cardiac myosin SII (Bos taurus, UniProt Q9BE39)"
  inhibition at 100 µM, %: 0
- molecule: "O=c1ccc(-c2cnc(OCC(F)(F)F)nc2)nn1Cc1ccc2c(c1)CC1CC21 (centres unmarked) [Compound 156]"
  target_or_test_system: "cardiac myosin SII (Bos taurus, UniProt Q9BE39)"
  inhibition at 100 µM, %: 7
